I'd appreciate it if you could supply fractional inhibitory concentration index (FICI) values for the items below.
# Test system: Staphylococcus aureus
# EXPERIMENT SUMMARY: Synergistic antibacterial activity against methicillin resistant Staphylococcus aureus assessed as fractional inhibitory concentration index in presence of oxacillin incubated for 24 hrs by checkerboard assay
# Format: functional
Give bare numbers.

The cases that follow already have their fractional inhibitory concentration index (FICI) on record.
compound=CC(C)=CCc1c(O)cc(O)c2c1O[C@H](c1ccc(O)cc1)CC2=O recorded_number=0.31
compound="CC(C)=CCc1c(-c2ccc(O)cc2O)oc2c3c(cc(O)c2c1=O)OC(C)(C)C=C3 [MORUSIN]" recorded_number=0.375
compound=CC(C)=CCc1c(O)ccc(-c2oc3cc(O)cc(O)c3c(=O)c2CC=C(C)C)c1O recorded_number=0.375
compound="CC(C)=CCc1c(-c2ccc(O)cc2O)oc2c(CC=C(C)C)c(O)cc(O)c2c1=O [KUWANON C]" recorded_number=0.5
compound="O=C1C[C@@H](c2ccc(O)cc2)Oc2cc(O)ccc21 [LIQUIRTIGENIN]" recorded_number=0.372

Exercise: # input compound: O=C(/C=C/c1ccc(O)cc1)c1ccc(O)cc1O [ISOLIQUIRITIGENIN] ; wanted: its fractional inhibitory concentration index (FICI)
Solution: 0.312

---

# System: Staphylococcus aureus
# EXPERIMENT SUMMARY: Synergistic antibacterial activity against methicillin resistant Staphylococcus aureus assessed as fractional inhibitory concentration index in presence of kanamycin incubated for 24 hrs by checkerboard assay
# Assay type: functional
QUANTITY KIND: fractional inhibitory concentration index (FICI)
One number for each entry.

The cases that follow already have their fractional inhibitory concentration index (FICI) on record.
compound=CC(C)=CCc1c(-c2ccc(O)cc2O)oc2c3c(cc(O)c2c1=O)OC(C)(C)C=C3 recorded_number=0.5
compound=CC(C)=CCc1c(-c2ccc(O)cc2O)oc2c(CC=C(C)C)c(O)cc(O)c2c1=O recorded_number=0.375

Quick one: give me fractional inhibitory concentration index (FICI) for each item below, same order please.
1. CC(C)=CCC/C(C)=C/Cc1cc(C2CC(=O)c3c(O)cc(O)cc3O2)c(O)cc1O (centres undefined)
2. CC(C)=CCc1c(O)ccc(-c2oc3cc(O)cc(O)c3c(=O)c2CC=C(C)C)c1O

Solution:
[0.5, 0.5]
